Provide the reported pIC50 of each item.
pIC50: −log10 of the molar value.

Query: Item: CN(C(=O)N1CC[C@@H](NC(=O)c2cc(-c3cnn(C)c3)cnc2N)C1)c1ccccc1 Test system: human MER (528-end) (Homo sapiens (Human), UniProt Q12866) Read-out: pIC50 Value: ?
Result: < 6.00

Query: Item: Cn1cc(-c2cnc(N)c(C(=O)N[C@@H]3CCN(C(=O)/C=C/c4ccc5c(c4)OCO5)C3)c2)cn1 Test system: human MER (528-end) (Homo sapiens (Human), UniProt Q12866) Read-out: pIC50 Value: ?
Result: < 6.00

Query: Item: Cn1cc(-c2cnc(N)c(C(=O)N[C@@H]3CCN(C(=S)Nc4cccc(-c5ccccc5)c4)C3)c2)cn1 Test system: human MER (528-end) (Homo sapiens (Human), UniProt Q12866) Read-out: pIC50 Value: ?
Result: 6.00 to 7.00

Query: Item: Nc1ncc(-c2cnn(C3CCNCC3)c2)cc1C(=O)N[C@@H]1CCN(C(=O)Oc2cccc(-c3ccccc3)c2)C1 Test system: human MER (528-end) (Homo sapiens (Human), UniProt Q12866) Read-out: pIC50 Value: ?
Result: 7.00 to 8.00

Query: Item: CNc1ccc(-c2cccc(NC(=O)N3CC[C@@H](NC(=O)c4cc(-c5cnn(C)c5)cnc4N)C3)c2)cc1 Test system: human MER (528-end) (Homo sapiens (Human), UniProt Q12866) Read-out: pIC50 Value: ?
Result: 6.00 to 7.00

Query: Item: C[C@H](CO)NCc1ccc(-c2cccc(OC(=O)N3CC[C@@H](NC(=O)c4cc(-c5cnn(C)c5)cnc4N)C3)c2)cc1 Test system: human MER (528-end) (Homo sapiens (Human), UniProt Q12866) Read-out: pIC50 Value: ?
Result: 6.00 to 7.00

Query: Item: Cn1cc(-c2cnc(N)c(C(=O)N[C@@H]3CCN(C(=O)c4ccc(-c5cccc(-c6nnnn6C)c5)cc4)C3)c2)cn1 Test system: human MER (528-end) (Homo sapiens (Human), UniProt Q12866) Read-out: pIC50 Value: ?
Result: 7.00 to 8.00
